Values compiled from patent US20250092015A1.

# Experiment Notes: Rate of crossing blood-brain barrier in rats
# Type: in vivo
# Experimental Context: rat, brain tissue and plasma (free drug concentrations), 4 h after administration, read-out: Rate of crossing blood-brain barrier (ratio of free drug concentration in brain tissue to free drug concentration in plasma)
Quantity: Kp at 4 h

IN: Sample C#Cc1cccc(Nc2ncnc3cc(OC)c(O[C@@H]4CCN(C)CC4(F)F)cc23)c1F — what was its Kp at 4 h?
OUT: > 0.5
